- TEST TARGET: T1, Cynomolgus CXCR2 (cynomolgus, UniProt Q28519 3-353 (rhesus entry))
- T1 construct: On transfected HEK293T or RBL-2H3 cells; native on cynomolgus neutrophils in the WBSC assay; also called cCXCR2; cynoCXCR2
- T1 chain: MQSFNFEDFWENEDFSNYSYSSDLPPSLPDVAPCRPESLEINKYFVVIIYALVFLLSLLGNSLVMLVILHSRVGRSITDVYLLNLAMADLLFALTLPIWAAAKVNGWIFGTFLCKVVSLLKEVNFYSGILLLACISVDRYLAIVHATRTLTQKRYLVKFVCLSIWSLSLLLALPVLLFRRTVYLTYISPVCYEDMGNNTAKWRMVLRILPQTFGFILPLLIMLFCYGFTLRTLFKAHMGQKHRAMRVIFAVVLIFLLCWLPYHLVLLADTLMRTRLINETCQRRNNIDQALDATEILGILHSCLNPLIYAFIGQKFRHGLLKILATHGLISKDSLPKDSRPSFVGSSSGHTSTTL
- TEST NAME: FACS competition vs 3 nM FMAT-Blue Gro-α
RECORDED ENDPOINT: % inhibition of max (%)

1) CXCR20033 (bispecific antibody, Biparatopic: two VHH joined by a GlySer linker; also called 163E3-35GS-2B2; 163E3-2B2; not shown: C-terminal c-myc tag and His6 tag coded by pAX100) EVQLVESGGGLVQPGGSLRLSCVASGRIFSSNAMGWFRQAPGKEREFVAAITWRSGGSAYYADSAKGRFTISRDNAKNTVYLQMNSLKPEDTAVYYCAAGGSSWLSFPPDYWGQGTQVTVSSGGGGSGGGGSGGGGSGGGGSGGGGSGGGGSGGGGSEVQLVESGGELVQPGGSLRLSCAASGSILTINAMGWYRQAPGKQRELVVRRTRGGSTTYQDSVKGRFTISADIAKKTMYLQMNSLKPEDTAVYYCMLDDRGGVYWGQGTQVTVSS | 99
2) CXCR20016 (other, Two different VHH joined by a GlySer linker; also called 137B7-35GS-2B2; not shown: C-terminal c-myc tag and His6 tag coded by pAX100) EVQLVESGGGLVQPGGSVRLSCVASGIIFRLSALGWTRQGPGKAREWVAGINSDGTTNYADPVKGRFTISRDNAKNTIYLHMDMLKPEDTAVYYCASGKYRGQGTQVTVSSGGGGSGGGGSGGGGSGGGGSGGGGSGGGGSGGGGSEVQLVESGGELVQPGGSLRLSCAASGSILTINAMGWYRQAPGKQRELVVRRTRGGSTTYQDSVKGRFTISADIAKKTMYLQMNSLKPEDTAVYYCMLDDRGGVYWGQGTQVTVSS | 88

Cited source: patent US20130330346A1
